Readings of growth at 0.1 µM for the listed compounds
System: SK-OV-3
procedureSummary: Growth inhibition of human SKOV3 cells assessed as cell growth at 0.1 uM incubated for 48 hrs by sulforhodamine B assay relative to control
Assay type: functional
measurementConditions: SK-OV-3, 48 h, read-out: Activity
endpointLabel: growth at 0.1 µM (%)

# structureString, endpointLabel, resultNumber
rows = [
    ("COc1cc(Cl)cc(-c2nn(-c3cccc(NC(=O)Nc4cc(C(F)(F)F)cc(C(F)(F)F)c4)c3)cc2-c2ccncc2)c1", "growth at 0.1 µM", 105),
    ("COc1cc(Cl)cc(-c2nn(-c3cccc(NC(=O)c4cccc(C(F)(F)F)c4)c3)cc2-c2ccncc2)c1", "growth at 0.1 µM", 105),
    ("O=C(Nc1cccc(-n2cc(-c3ccncc3)c(-c3cc(O)cc(Cl)c3)n2)c1)c1ccc(N2CCOCC2)c(C(F)(F)F)c1", "growth at 0.1 µM", 102),
    ("O=C(Nc1cccc(-n2cc(-c3ccncc3)c(-c3cc(O)cc(Cl)c3)n2)c1)c1cc(C(F)(F)F)cc(C(F)(F)F)c1", "growth at 0.1 µM", 98),
    ("O=C(Nc1cccc(-n2cc(-c3ccncc3)c(-c3cc(O)cc(Cl)c3)n2)c1)Nc1ccc(Cl)c(Cl)c1", "growth at 0.1 µM", 103),
    ("COc1cc(Cl)cc(-c2nn(-c3cccc(NC(=O)c4ccc(N5CCOCC5)c(C(F)(F)F)c4)c3)cc2-c2ccncc2)c1", "growth at 0.1 µM", 102),
]

* * *

System: NCI-H226
procedureSummary: Growth inhibition of human NCI-H226 cells incubated for 48 hrs by sulforhodamine B assay
Assay type: functional, cell-based
measurementConditions: NCI-H226, 48 h, read-out: GI50

# structureString, GI50, nM
rows = [
    ("O=C(Nc1cccc(-n2cc(-c3ccncc3)c(-c3cc(O)cc(Cl)c3)n2)c1)c1cc(C(F)(F)F)cc(C(F)(F)F)c1", 1510),
    ("O=C(Nc1cccc(-n2cc(-c3ccncc3)c(-c3cc(O)cc(Cl)c3)n2)c1)Nc1ccc(Cl)c(C(F)(F)F)c1", 2470),
    ("COc1cc(Cl)cc(-c2nn(-c3cccc(NC(=O)Nc4cc(C(F)(F)F)cc(C(F)(F)F)c4)c3)cc2-c2ccncc2)c1", 704),
    ("COc1cc(Cl)cc(-c2nn(-c3cccc(NC(=O)c4ccc(N5CCOCC5)c(C(F)(F)F)c4)c3)cc2-c2ccncc2)c1", 9340),
]

* * *

Test system: IGROV-1
procedureSummary: Growth inhibition of human IGROV1 cells incubated for 48 hrs by sulforhodamine B assay
Type: functional, cell-based
measurementConditions: IGROV-1, 48 h, read-out: pGI50 (converted)

# structureString, targetUnderTest, resultUnit, GI50
records = [
    ("O=C(Nc1cccc(-n2cc(-c3ccncc3)c(-c3cc(O)cc(Cl)c3)n2)c1)c1cc(C(F)(F)F)cc(C(F)(F)F)c1", "IGROV-1", "µM", 7.94),
    ("COc1cc(Cl)cc(-c2nn(-c3cccc(NC(=O)Nc4ccc(Cl)c(Cl)c4)c3)cc2-c2ccncc2)c1", "IGROV-1", "µM", 4.37),
    ("O=C(Nc1cccc(-n2cc(-c3ccncc3)c(-c3cc(O)cc(Cl)c3)n2)c1)Nc1ccc(Cl)c(C(F)(F)F)c1", "IGROV-1", "µM", 3.8),
    ("COc1cc(Cl)cc(-c2nn(-c3cccc(NC(=O)Nc4cc(C(F)(F)F)cc(C(F)(F)F)c4)c3)cc2-c2ccncc2)c1", "IGROV-1", "µM", 0.575),
]
